Please respond with reported inhibition at 0.0003 µM for every item in the list.
# system: EGFR (L858R/T790M/C797S) (Homo sapiens, UniProt P00533, C797S/L858R/T790M)
# Sequence (P00533 25-1210 T790M/C797S/L858R): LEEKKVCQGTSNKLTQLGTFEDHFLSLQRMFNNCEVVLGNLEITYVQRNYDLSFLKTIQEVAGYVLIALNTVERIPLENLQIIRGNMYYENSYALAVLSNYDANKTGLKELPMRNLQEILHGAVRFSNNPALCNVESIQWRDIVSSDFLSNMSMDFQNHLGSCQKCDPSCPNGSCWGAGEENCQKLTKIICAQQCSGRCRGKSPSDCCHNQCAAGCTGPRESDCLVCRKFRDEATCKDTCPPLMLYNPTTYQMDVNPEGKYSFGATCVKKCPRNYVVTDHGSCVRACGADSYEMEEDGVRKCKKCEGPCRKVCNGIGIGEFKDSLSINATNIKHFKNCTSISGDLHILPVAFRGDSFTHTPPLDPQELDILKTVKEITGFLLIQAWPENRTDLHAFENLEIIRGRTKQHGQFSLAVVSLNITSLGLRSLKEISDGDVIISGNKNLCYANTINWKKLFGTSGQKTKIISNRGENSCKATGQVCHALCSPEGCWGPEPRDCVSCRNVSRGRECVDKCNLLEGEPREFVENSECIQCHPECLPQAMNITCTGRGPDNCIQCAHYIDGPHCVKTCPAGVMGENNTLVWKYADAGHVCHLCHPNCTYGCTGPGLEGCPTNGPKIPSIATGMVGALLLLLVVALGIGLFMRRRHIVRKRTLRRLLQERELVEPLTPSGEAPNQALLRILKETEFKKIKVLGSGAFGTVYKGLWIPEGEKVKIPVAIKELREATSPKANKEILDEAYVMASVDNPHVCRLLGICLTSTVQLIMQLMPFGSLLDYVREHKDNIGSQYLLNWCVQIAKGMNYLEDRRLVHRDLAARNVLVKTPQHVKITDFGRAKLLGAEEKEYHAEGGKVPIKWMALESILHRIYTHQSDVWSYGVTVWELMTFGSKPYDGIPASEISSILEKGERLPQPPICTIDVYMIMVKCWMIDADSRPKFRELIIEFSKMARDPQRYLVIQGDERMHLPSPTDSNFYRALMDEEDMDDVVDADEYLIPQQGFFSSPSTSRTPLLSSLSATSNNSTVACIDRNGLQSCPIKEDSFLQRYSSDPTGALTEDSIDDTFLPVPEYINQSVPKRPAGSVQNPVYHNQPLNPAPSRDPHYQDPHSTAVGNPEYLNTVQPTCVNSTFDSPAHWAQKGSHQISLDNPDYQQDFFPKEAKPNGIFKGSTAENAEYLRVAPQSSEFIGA
# assayComment: HTRF inhibitory activity assay against EGFR (L858R/T790M/C797S) enzyme
# Format: biochemical
# conditionSet: read-out: EGFR (L858R/T790M/C797S) inhibition (%) (0.3 nM compound)

query: Reported inhibition at 0.0003 µM for COC1CCC(Nc2nc(Nc3ccc(N4CCC(N5CCN(C)CC5)CC4)cc3)c(C(N)=O)nc2-c2ccccc2)C1 (stereo not drawn) [compound 35] : what is it?
result: ≤ 20%

query: Reported inhibition at 0.0003 µM for CN1CCN(C2CCN(c3ccc(Nc4nc(NC5CC6(COC6)C5)c(-c5cccc6[nH]ccc56)nc4C(N)=O)cc3F)CC2)CC1 [compound 536] : what is it?
result: > 50%

query: Reported inhibition at 0.0003 µM for CN1CCC(c2ccc(Nc3nc(NC4CCOCC4)c(-c4ccncc4)nc3C(N)=O)cc2)CC1 [compound 121] : what is it?
result: > 50%

query: Reported inhibition at 0.0003 µM for CN1CCN(C2CCN(c3ccc(Nc4nc(NC5CCCC5)c(-c5cccc6[nH]ccc56)nc4C(N)=O)cc3)CC2)CC1 [compound 524] : what is it?
result: > 50%

query: Reported inhibition at 0.0003 µM for CN1CCN(C2CCN(c3ccc(Nc4nc(NC5COC5)c(-c5cccc6[nH]ccc56)nc4C(N)=O)cc3)CC2)CC1 [compound 594] : what is it?
result: > 50%

query: Reported inhibition at 0.0003 µM for CN1CCN(C2CCN(c3ccc(Nc4nc(NC5CCOCC5)c(-c5cn[nH]c5)nc4C(N)=O)cc3)CC2)CC1 [compound 57] : what is it?
result: 20 to 50%

query: Reported inhibition at 0.0003 µM for CN1CCN(C2CCN(c3ccc(Nc4nc(N[C@H]5CC[C@H](O)CC5)c(-c5cccc6[nH]ccc56)nc4C(N)=O)cc3)CC2)CC1 [compound 526] : what is it?
result: > 50%

query: Reported inhibition at 0.0003 µM for CN1CCN(C2CCN(c3ccc(Nc4nc(NC5CCOCC5)c(-c5cccc6[nH]ccc56)nc4C(N)=O)cc3F)CC2)CC1 [compound 519] : what is it?
result: > 50%

query: Reported inhibition at 0.0003 µM for CCc1cc(Nc2nc(NC3CC4(COC4)C3)c(-c3cc[nH]n3)nc2C(N)=O)ccc1N1CCC(N2CCN(C)CC2)CC1 [compound 503] : what is it?
result: ≤ 20%

query: Reported inhibition at 0.0003 µM for CN1CCN(C2CCN(c3ccc(Nc4nc(NC5CCOCC5)c(-c5cc[nH]n5)nc4C(N)=O)cc3)CC2)CC1 [compound 55] : what is it?
result: ≤ 20%

query: Reported inhibition at 0.0003 µM for CN1CCN(C2CCN(c3ccc(Nc4nc(NC5CCOCC5)c(-c5ccco5)nc4C(N)=O)cc3)CC2)CC1 [compound 69] : what is it?
result: ≤ 20%

query: Reported inhibition at 0.0003 µM for CN1CCN(C2CCN(c3ccc(Nc4nc(NC5CCOCC5)c(-c5cccc6[nH]ccc56)nc4C(N)=O)cc3)CC2)CC1 [compound 511] : what is it?
result: > 50%
